# Assayed target: BCAT2 (Homo sapiens, UniProt O15382)
# Sequence (O15382 28-392): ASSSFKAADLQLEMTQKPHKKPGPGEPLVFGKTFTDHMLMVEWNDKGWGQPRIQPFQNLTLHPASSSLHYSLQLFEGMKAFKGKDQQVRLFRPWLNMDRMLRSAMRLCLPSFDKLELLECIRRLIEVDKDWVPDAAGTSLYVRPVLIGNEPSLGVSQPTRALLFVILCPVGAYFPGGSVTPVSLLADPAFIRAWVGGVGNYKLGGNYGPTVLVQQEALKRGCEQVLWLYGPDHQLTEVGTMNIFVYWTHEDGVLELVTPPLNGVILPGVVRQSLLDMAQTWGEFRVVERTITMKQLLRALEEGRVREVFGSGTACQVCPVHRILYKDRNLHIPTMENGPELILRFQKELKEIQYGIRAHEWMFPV
# Assay explanation: BCAT2 in vitro cell inhibition using engineered A549 cells (KMV cell assay, 13C6-KMV by LC-MS/MS)
# Assay type: cell-based
# Parameters: The result was an engineered A549 cell line that expressed endogenous BCAT2; endogenous in cells; host or cells: A549 cells with MUT and BCAT1 knocked out by CRISPR/CAS9
# Measurement conditions: average where tested multiple times
Assign IC50 to each entry below.

Quickly give me recorded IC50 for CC(C)Cc1nc2cnc(-c3nc[nH]n3)cc2n1[C@@H]1CCC[C@H](NC(=O)c2ncc(C#N)s2)C1
100 to 500 nM

Quickly give me recorded IC50 for O=C(N[C@H]1CCC[C@@H](n2c(-c3ccccc3F)nc3cnc(-c4ncccc4F)cc32)C1)c1ncc(Cl)s1
≤ 100 nM

Quickly give me recorded IC50 for O=C(N[C@H]1CCC[C@@H](n2c(-c3ccccn3)nc3cnc(-c4ncco4)cc32)C1)c1ccc(Br)s1
≤ 100 nM

Quickly give me recorded IC50 for CC(C)(C)Cc1nc2cnc(-n3nccn3)cc2n1[C@@H]1CCC[C@H](NC(=O)c2ccc(Cl)s2)[C@H]1O
≤ 100 nM

Quickly give me recorded IC50 for O=C(N[C@H]1CCC[C@@H](n2c(CC3CC3)nc3cnc(-c4nc[nH]n4)cc32)C1)c1ncc(Cl)s1
≤ 100 nM

Quickly give me recorded IC50 for CC(C)Cc1nc2cnc(-c3nccs3)cc2n1C1CCCC(NC(=O)c2ncc(Cl)s2)C1O (stereo not drawn)
≤ 100 nM

Quickly give me recorded IC50 for CC(C)Cc1nc2cnc(-n3cc(CO)nn3)cc2n1[C@@H]1CCC[C@H](NC(=O)c2ncc(Cl)s2)C1
> 1000 nM

Quickly give me recorded IC50 for CO[C@H]1C[C@H](NC(=O)c2ccc(Cl)s2)C[C@H](n2c(CC(C)C)nc3cnc(-c4ncccn4)cc32)C1 (single isomer, unassigned)
≤ 100 nM

Quickly give me recorded IC50 for Cc1csc(-c2cc3c(cn2)nc(CC(C)C)n3[C@@H]2CCC[C@H](NC(=O)c3ncc(Cl)s3)C2)n1
≤ 100 nM

Quickly give me recorded IC50 for C#Cc1cnc(C(=O)N[C@H]2CCC[C@@H](n3c(-c4ccccn4)nc4cnc(-n5nccn5)cc43)C2)s1
≤ 100 nM

Quickly give me recorded IC50 for O=C(N[C@H]1CCC[C@@H](n2c(-n3nccn3)nc3cnc(-n4nccn4)cc32)C1)c1ncc(C(F)F)s1
> 1000 nM

Quickly give me recorded IC50 for O=C(N[C@H]1CCC[C@@H](n2c(-c3ccccc3F)nc3ccc(-c4ncco4)cc32)[C@@H]1O)c1ncc(Cl)s1
≤ 100 nM

Quickly give me recorded IC50 for CC(C)Cc1nc2cnc(-c3nc[nH]n3)cc2n1[C@@H]1CCC[C@H](NC(=O)c2ccc(Cl)s2)C1
≤ 100 nM

Quickly give me recorded IC50 for O=C(N[C@H]1CCC[C@@H](n2c(-c3ccccc3F)nc3cnc(-c4cccnc4)cc32)C1)c1ncc(Cl)s1
100 to 500 nM

Quickly give me recorded IC50 for O=C(N[C@H]1CCC[C@@H](n2c(-c3ccccc3F)nc3cnc(-c4nc[nH]n4)cc32)C1)c1ncc(C(F)(F)F)s1
≤ 100 nM

Quickly give me recorded IC50 for O=C(N[C@H]1C[C@H](O)C[C@@H](n2c(-c3ccccc3F)nc3cnc(-c4nc[nH]n4)cc32)C1)c1ccc(Cl)s1
≤ 100 nM

Quickly give me recorded IC50 for CC(=O)N1CC(NC(=O)c2ncc(C(F)F)s2)CC(n2c(-c3ccccc3F)nc3cnc(-c4ncco4)cc32)C1 (stereo not drawn)
≤ 100 nM

Quickly give me recorded IC50 for O=C(N[C@H]1CCC[C@@H](n2c(-c3ncccc3F)nc3cnc(-n4cncn4)cc32)C1)c1ncc(C(F)F)s1
500 to 1000 nM

Quickly give me recorded IC50 for CS(=O)(=O)N1C[C@H](NC(=O)c2ccc(Cl)s2)C[C@H](n2c(-c3ccccc3F)nc3cnc(-c4nc[nH]n4)cc32)C1
≤ 100 nM

Quickly give me recorded IC50 for O=C(N[C@H]1CCC[C@@H](n2c(-c3ccccn3)nc3cnc(-n4ccnn4)cc32)C1)c1ccc(Br)s1
500 to 1000 nM

Quickly give me recorded IC50 for COC(c1nc2cnc(-c3nc[nH]n3)cc2n1[C@@H]1CCC[C@H](NC(=O)c2ncc(Cl)s2)C1)C(C)C (stereo partly drawn)
100 to 500 nM

Quickly give me recorded IC50 for CC(C)(C)Cc1nc2cnc(-c3nc[nH]n3)cc2n1[C@@H]1CCC[C@H](NC(=O)c2ncc(Cl)s2)C1
≤ 100 nM

Quickly give me recorded IC50 for CC(C)Cc1nc2cnc(-c3ncccn3)cc2n1C1CCCC(NC(=O)c2ncc(Cl)s2)C1O (stereo not drawn)
100 to 500 nM

Quickly give me recorded IC50 for Cc1coc(-c2cc3c(cn2)nc(-c2ccccc2F)n3[C@@H]2CCC[C@H](NC(=O)c3ncc(Cl)s3)[C@H]2O)n1
≤ 100 nM

Quickly give me recorded IC50 for CO[C@H]1C[C@H](NC(=O)c2ncc(Cl)s2)C[C@H](n2c(CC(C)C)nc3cnc(-n4nccn4)cc32)C1
100 to 500 nM

Quickly give me recorded IC50 for O=C(N[C@H]1CCC[C@@H](n2c(-c3ccccc3F)nc3cnc(-c4ncco4)cc32)[C@@H]1O)c1ncc(Cl)s1
≤ 100 nM

Quickly give me recorded IC50 for O=C(N[C@H]1CCC[C@@H](n2c(-c3ccccc3F)nc3cnc(-c4ncco4)cc32)C1)c1ccc(Br)s1
≤ 100 nM

----------
# Assayed target: hBCAT1 (Homo sapiens)
# Assay explanation: BCAT1 in vitro enzyme inhibition assay (resazurin/diaphorase-coupled fluorescence)
# Type: biochemical
# Measurement conditions: average where tested multiple times
Quantity name: IC50

Quickly give me recorded IC50 for Cc1coc(-c2cc3c(cn2)nc(-c2ccccn2)n3[C@@H]2CCC[C@H](NC(=O)c3ccc(Br)s3)C2)n1
< 500 nM

Quickly give me recorded IC50 for CC(C)Cc1nc2cnc(-c3ccccc3CC#N)cc2n1[C@@H]1CCC[C@H](NC(=O)c2ccc(Cl)s2)C1
500 to 1000 nM

Quickly give me recorded IC50 for C#Cc1cnc(C(=O)N[C@H]2CCC[C@@H](n3c(-c4ccccn4)nc4cnc(-n5nccn5)cc43)C2)s1
< 500 nM

Quickly give me recorded IC50 for O=C(N[C@H]1CCCC[C@@H](n2c(-c3ccccc3F)nc3cnc(-c4nc[nH]n4)cc32)[C@@H]1O)c1ccc(Cl)s1
< 500 nM

----------
# Assayed target: BCAT2 (Homo sapiens)
# Assay explanation: BCAT2 in vitro enzyme inhibition assay (resazurin/diaphorase-coupled fluorescence)
# Assay type: biochemical
# Measurement conditions: average where tested multiple times
pIC50: −log10 of the molar value.
Assign pIC50 to each entry below.

Report measured pIC50 on BCAT2 (Homo sapiens); entry: CC(C)Cc1nc2cnc(-c3nccs3)cc2n1C1CCCC(NC(=O)c2ncc(Cl)s2)C1O (stereo not shown)
≥ 7.00

Report measured pIC50 on BCAT2 (Homo sapiens); entry: O=C(N[C@H]1CCC[C@@H](n2c(-c3ccccc3F)nc3cnc(-c4ncccn4)cc32)C1)c1ncc(Cl)s1
≥ 7.00

Report measured pIC50 on BCAT2 (Homo sapiens); entry: N#Cc1ccc(-c2nc3cnc(-c4nc[nH]n4)cc3n2[C@@H]2CCC[C@H](NC(=O)c3ccc(Cl)s3)C2)c(F)c1
< 6.00

Report measured pIC50 on BCAT2 (Homo sapiens); entry: CC(C)Cc1nc2cnc(N3CCC[C@@H]3C#N)cc2n1[C@@H]1CCC[C@H](NC(=O)c2ncc(Cl)s2)C1
< 6.00

----------
Assign IC50 to each entry below.

Report measured IC50 on hBCAT1 (Homo sapiens, UniProt P54687); entry: O=C(N[C@H]1CCC[C@@H](n2c(-c3ncccc3F)nc3cnc(-n4nccn4)cc32)C1)c1ncc(C(F)(F)F)s1
Sequence (P54687 whole entry): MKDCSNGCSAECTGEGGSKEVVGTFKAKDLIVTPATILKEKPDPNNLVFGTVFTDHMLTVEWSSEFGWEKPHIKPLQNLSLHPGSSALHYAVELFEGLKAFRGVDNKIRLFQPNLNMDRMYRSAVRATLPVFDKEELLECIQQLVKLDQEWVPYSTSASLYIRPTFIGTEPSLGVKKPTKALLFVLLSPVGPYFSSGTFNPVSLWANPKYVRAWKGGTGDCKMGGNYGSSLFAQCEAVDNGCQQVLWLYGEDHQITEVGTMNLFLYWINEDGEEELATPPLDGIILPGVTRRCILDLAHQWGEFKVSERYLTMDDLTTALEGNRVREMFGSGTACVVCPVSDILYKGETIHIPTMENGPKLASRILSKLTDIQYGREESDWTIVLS
0.5 to 1 µM

Report measured IC50 on hBCAT1 (Homo sapiens, UniProt P54687); entry: CO[C@H]1C[C@H](NC(=O)c2ncc(Cl)s2)C[C@H](n2c(-c3ccccc3F)nc3cnc(-c4nc[nH]n4)cc32)C1 (single isomer, unassigned)
< 0.5 µM

Report measured IC50 on hBCAT1 (Homo sapiens, UniProt P54687); entry: O=C(N[C@H]1CCC[C@@H](n2c(-c3ccccc3OC(F)F)nc3cnc(-c4nc[nH]n4)cc32)C1)c1ncc(Cl)s1
< 0.5 µM
